Entries annotated with measured inhibition
Target: Phosphorylase b kinase gamma catalytic chain, liver/testis isoform (Homo sapiens) (UniProt P15735);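 note: reported value is the mean inhibition of PHKG2 from the GSK_PKIS screening set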
Sequence (P15735 whole entry, canonical isoform): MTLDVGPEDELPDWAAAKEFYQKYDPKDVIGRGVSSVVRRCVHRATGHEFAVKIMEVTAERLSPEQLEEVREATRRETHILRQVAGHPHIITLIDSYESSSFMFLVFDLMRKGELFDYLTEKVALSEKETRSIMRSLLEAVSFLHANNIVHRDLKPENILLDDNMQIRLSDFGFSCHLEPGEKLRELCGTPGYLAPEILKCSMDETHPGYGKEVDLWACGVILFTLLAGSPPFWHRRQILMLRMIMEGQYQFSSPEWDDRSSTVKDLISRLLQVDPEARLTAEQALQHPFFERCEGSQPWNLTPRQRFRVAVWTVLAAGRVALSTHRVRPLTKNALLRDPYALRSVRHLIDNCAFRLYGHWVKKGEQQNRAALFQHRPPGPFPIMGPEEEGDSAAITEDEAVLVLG
Details: at 1 µM
Kindly provide the numeric value in % only, without the unit symbol.

inhibition in this record for Cn1cc(C=C2C(=O)Nc3cccnc32)c2ccccc21 : 2.8

Sample COc1cc2ncn(-c3cc(OCc4ccccc4Cl)c(C(N)=O)s3)c2cc1OC ; inhibition observed: 1.21

inhibition for CS(=O)(=O)CCNCc1nc(-c2ccc3ncnc(Nc4ccc(F)c(Cl)c4)c3c2)cs1 is 3.64

In plain terms, CCn1c(-c2nonc2N)nc2c(C#CC(C)(C)O)nc(OC[C@@H](N)c3ccccc3)cc21 has a documented inhibition of -2.54

So, COc1ccc(-c2coc3ncnc(N)c23)cc1 ? Its inhibition was 2.09

The value of inhibition measured for the compound CN(C)c1cc2c(Nc3ccc4nc(Cc5ccccc5)[nH]c4c3)ncnc2cn1 turned out to be 5.19

Just so you know, measured inhibition for Cc1ccc(NC(=O)c2ccnc(N3CCCC3)c2)cc1-c1ccc(C(=O)NCC2CC2)cc1 came out at 5.73

Kindly note the recorded inhibition for Cc1cc(O)cc(C)c1/C=C/c1cncc(-c2nn[nH]n2)c1 , which is 2.82

Documented inhibition of COC(=O)Nc1nc2cc(Oc3cccc(NC(=O)Nc4cc(C(F)(F)F)ccc4F)c3)ccc2[nH]1 : -1.83

Entry Cc1ccc(C(=O)NC2CCCCC2)cc1-c1ccc(C(=O)NCC2CC2)cc1 , inhibition reported as 1.55

Note to self: inhibition recorded for CCn1c(-c2nonc2N)nc2cnc(Oc3cccc(NC(=O)c4ccc(OCCN5CCOCC5)cc4)c3)cc21 was 1.77

inhibition reading for CNC(=O)c1cncc(/C=C/c2c(Cl)cccc2Cl)c1 : 4.55

The compound listed as CS(=O)(=O)Nc1ccc(N/C=C2\C(=O)Nc3ccccc32)cc1 has a reported inhibition of 5.2
